Where these numbers come from: patent US11566007B2

system: KRAS G13D (Homo sapiens (Human), UniProt P01116+P62937, G13D)
Sequence (P01116-2 other isoform, or with tags, fused parts or gaps G13D): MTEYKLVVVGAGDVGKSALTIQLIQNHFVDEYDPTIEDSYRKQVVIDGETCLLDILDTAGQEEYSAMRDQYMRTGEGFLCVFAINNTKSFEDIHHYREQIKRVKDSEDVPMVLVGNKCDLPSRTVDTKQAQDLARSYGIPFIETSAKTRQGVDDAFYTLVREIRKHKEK
Sequence (P62937 whole entry): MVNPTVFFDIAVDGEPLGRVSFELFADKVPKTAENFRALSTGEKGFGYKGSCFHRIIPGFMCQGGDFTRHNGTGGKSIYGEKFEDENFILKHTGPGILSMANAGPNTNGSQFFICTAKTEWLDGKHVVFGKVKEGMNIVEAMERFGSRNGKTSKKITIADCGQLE
procedureSummary: Ras-Raf (BRAF RBD) disruption / FRET / MOA assay, KRAS G13D
Format: biochemical
protocolConditions: read-out: IC50* KRAS G13D FRET data
pIC50: −log10 of the molar value.
Overview of recorded pIC50 for various compounds

pIC50 reported for this compound CO[C@@H](C)c1ncccc1-c1c2c3cc(ccc3n1CC(F)(F)F)-c1cccc(c1)CN(NC(=O)[C@@H](COC1CN(C(=O)C#CC(C)(C)N(C)C)C1)C(C)C)C(=O)N1CCC[C@H](N1)C(=O)OCC(C)(C)C2 (atropisomer, axis not shown) : 5.00 to 6.00

Next:
pIC50 reported for this compound C=CC(=O)N1CC[C@H]2[C@@H](C1)CN2C(=O)N(C)[C@H](C(=O)N[C@H]1Cc2nc(cs2)-c2ccc3c(c2)c(c(-c2cccnc2[C@H](C)OC)n3CC)CC(C)(C)COC(=O)[C@@H]2CCCN(N2)C1=O)C(C)C (atropisomer, axis not shown) : 6.00 to 7.00

pIC50 reported for this compound CCn1c(-c2cccnc2[C@H](C)OC)c2c3cc(ccc31)-c1csc(n1)C[C@H](NC(=O)[C@H](C(C)C)N(C)C(=O)N1CCC13CN(C(=O)/C=C/CN(C)C)C3)C(=O)N1CCC[C@H](N1)C(=O)OCC(C)(C)C2 (atropisomer, axis not shown) : 6.00 to 7.00

pIC50 reported for this compound CCn1c(-c2cnccc2COC)c2c3cc(ccc31)-c1cccc(c1)C[C@H](NC(=O)[C@H](C(C)C)N(C)C(=O)[C@H]1CCN(C(=O)C#CCN(C)C)C1)C(=O)N1CCC[C@H](N1)C(=O)OCC(C)(C)C2 (atropisomer, axis not shown) : 5.00 to 6.00
